B1: glmS ribozyme (parent)
chain: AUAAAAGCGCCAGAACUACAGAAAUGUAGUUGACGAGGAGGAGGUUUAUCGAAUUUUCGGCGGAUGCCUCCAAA

# Variants of: B1
# test description: kcat; higher = faster cleavage; RNA array
# condition set: with glucosamine-6-phosphate
This sample holds only a part of the variants without activity.
Recorded kcat values for a group of variants are listed next.

# item sequence, unit symbol, value operator, kcat
rows = [
    ("AUAAAAGCGCCAGAACUACAGAAAUGUAGUUGACGAGGAGGAGGUUUAUCGGAUUUUCGGCGGAUGCCUACAAA", "s⁻¹", "=", "6.21e-05"),
    ("AUAAAAGCGCCGGAACUACAGAAAUGUAGUUGACGAGGAGGAGGUUUAUCGAAUUUUCGGCGGAUGCCUGCAAA", "s⁻¹", "=", 0.000171),
    ("AUAAAAGCGCCAGAACUACAGAAAUGUAGUUGUCGAGGAGGAGGUUUAUCGAAUUUUCGGCGGAUGUCUCCAAA", "s⁻¹", "=", "4.33e-05"),
    ("AUAAAAGCGCCAGAACUACAGAAAUGUAGUAGACGAGGAGGAGGUUUAUAGAAUUUUCGGCGGAUGCCUCCAAA", "s⁻¹", "=", "1.34e-05"),
    ("AUAAAAGCGCCAGAACUACAGAAAUGUAGUUGACGAGGAGGAGGUUAAUCGAAUUUUCGGCGGAGGCCCCCAAA", "s⁻¹", "=", 0.00209),
    ("AUAAAAGCGCCAAAAAUACAGAAAUGUAGUUGACGAGGAGGAGGUUUAUCGAAUUUUCGGCGGAUGCCUCCAAA", "s⁻¹", "=", 0.000316),
    ("AUAAAAGCGCCAAAACUACAGAAAUGUAGUUGACGAGGACGAGGUUUAUCGAAUUUUCGGCGGAUGCCUCCAAA", "s⁻¹", "=", "5.83e-05"),
    ("AUAAAAGCGCCCGAACUACAGAAAUGUAGUUGACGAGGAGGAGGUUUAUCGAAUUUUCGGCGGAUGGCUCCAAA", "s⁻¹", "=", 0.00173),
    ("AUAAAAGCGCCAGAACUACAGAAAUGUAGUUGACGAGGAGGAGGUUAAUCGUAUUUUCGGCGGAUGCCUCCAAA", "s⁻¹", "=", 0.000365),
    ("AUAAAUGCGCCACAACUACAGAAAUGUAGUUGACGAGGAGGAGGUUUAUCGAAUUUUCGGCGGAUGCCUGCAAA", "s⁻¹", "=", "2.43e-05"),
    ("AUAAAAGCGCCAGAACUACAGAAAUGUAGUUGACGAGGAGGAGGUUUAUCGAAUUAUCGGCGGAUGCCUCGAAA", "s⁻¹", "=", 0.00102),
    ("AUAAAAGCGCCAGAACUACAGAAAUGUAGUUGACGAGGAGGAGGUUUAUCGAUUUUUCGGCGGAUUCCUCCAAA", "s⁻¹", "=", 0.00118),
    ("AUAAAAGCGCCAGAACUACAGAAAUGUAGUUGACGAGUGGGAGGUUUAUGGAAUUUUCGGCGGAUGCCUCCAAA", "s⁻¹", "=", "3.57e-05"),
    ("AUAAAAGCGCCAGAAUUACAGAAAUGUAGUUGACGAGGAGGAGGUUUAUCGCAUUUUCGGCGGAUGCCUCCAAA", "s⁻¹", "=", "1.88e-05"),
    ("AUAAAAGCGCCAUAACUACAGAAAUGUAAUUGACGAGGAGGAGGUUUAUCGAAUUUUCGGCGGAUGCCUCCAAA", "s⁻¹", "=", 0.000411),
    ("AUAAAAGCGCCUGAACUACAGAAAUGUAGUUGACGAGGAGGAGGUUUAUCGAAUUUUCGGCGGAGGCCUCCAAA", "s⁻¹", "=", 0.00705),
    ("AUAAAAGCGCCAGAACUACAGAAAUGUAGGUGACGAGGAGGAGGUUUAUCGAAUUUUCGGCGGAUGCGUCCAAA", "s⁻¹", "=", "3.09e-05"),
    ("AUAAAAGCGCCAGAACUACAGAAAUGUAGUUGACGAGGAGGAGUUUUAUCGAAUUUUCGGCGGAGGCCUCCAAA", "s⁻¹", "=", 0.000347),
    ("AUAAAAGCGCCUGAACUACAGAAAUGUAGUUGACGAGGAGGAGGUUUAUCGACUUUUCGGCGGAUGCCUCCAAA", "s⁻¹", "=", 0.0145),
    ("AUAAAAGCGCCAGAACUACAGAAAUGUAGUUGACGAGGAGGAGGUUUAUCGUAUUUUCGGCGGAGGCCUCCAAA", "s⁻¹", "=", "9.59e-05"),
    ("AUAAAAGCGCCAGAUCUACAGAAAUGUAGUUGACGAGGAGGAGGUUUAUCGAAUUUUCGGCGGAUGCCGCCAAA", "s⁻¹", "=", "5.2e-05"),
    ("AUAAAAGCGCCAGCGCUACAGAAAUGUAGUUGACGAGGAUGAGGUUUAUCGAAUUUUCGGCGGAUGCCUCCAAA", "s⁻¹", "=", 0.000605),
    ("AUAAAAGCGCCAGAACUACAGAAAUGUAGUUGACGAGGAGGAGGUUUAUCGAAUUGUCGGCGGAUUCCUCCAAA", "s⁻¹", "=", 0.000858),
    ("AUAAAAGCGCCAGAACUACAGAAAUGUAGUUGACGAGGAGGAGGUUUAUCGAAUUUUCCGCGGAUGCGUCCAAA", "s⁻¹", "=", "2.78e-05"),
    ("AUAAACGCGCCAGAACUACAGAAAUGUAGUUGACGAGGAGGAGGUUUAUCGAACUUUCGGCGGAUGCCUCCAAA", "s⁻¹", "=", 0.000106),
    ("AUAAAAGCGCCAGAACUACAGAAAUGUAGUCGACGAGGAGGAGGUUUAUCGAGUUUUCGGCGGAUGCCUUCAAA", "s⁻¹", "=", 0.0038),
    ("AUAAAAGCGCCAGAACUACAGAAAUGUAGUUGACGAGGAGGAGGUUUAUAGAAUUUUCGGCGGAUCCCUCCAAA", "s⁻¹", "=", "1.65e-05"),
    ("AUAAAAGCGCCAGAAUUACAGAAAUGUAGUUGACGAGGAGGAGGUUUAUCGAAUUUUCGGCGGACGCCUCCAAA", "s⁻¹", "=", 0.000756),
    ("AUAAAAGCGCCAGAACUACAGAAAUGUAGCUGACGAGGAGGAGGUUUAUCGAAUUUUCGGCGGAUGCCUCCAAA", "s⁻¹", "=", 0.000469),
    ("AUAAAAGCGGCAGAACUACAGAAAUGUAGUUGACGAUGAGGAGGUUUAUCGAAUUUUCGGCGGAUGCCUCCAAA", "s⁻¹", "<", "1e-05"),
    ("AUAAAAGCGCCAGGACUACAGAAAUGUAGUUGACCAGGAGGAGGUUUAUCGAAUUUUCGGCGGAUGCCUCCAAA", "s⁻¹", "<", "1e-05"),
    ("AUAAAAGCGCCAGAACUACAGAAAUGUAGUUGACGAGGAGGAGGUGUAUCGAAGUUUCGGCGGAUGCCUCCAAA", "s⁻¹", "=", 0.0123),
    ("AUAAAAGCGCCAGAACUACAGAAAUGUAGUUGACGAGGAGGAGGUUUAUCGAAUUUGCUGCGGAGGCUUCCAAA", "s⁻¹", "=", "1.85e-05"),
    ("AUAAAAGCGCCAGAACUACAGAAAUGUAGCUGACGAGGAGGAGGUUUAUCGAAGUUUCGGCGGAUGCCUCCAAA", "s⁻¹", "=", 0.000209),
    ("AUAAAAGCGCCAGUACUACAGAAAUGUAGUUGACGAGGAGGAGGUUUAUCGACUUUUCGGCGGAUGCCUCCAAA", "s⁻¹", "=", 0.00136),
    ("AUAAAAGCGCCAGAACUACAGAAAUGUAGUUGACGAGGACGAGGUUUAUCGAAUUUUCGGCGGAUGCCUCGAAA", "s⁻¹", "=", 0.0271),
    ("AUAAAAGCGCCAGAACUACAGAAAUGUAGUUGACGAGGAGGAGGUUUUUCGAAUUCUCGGCGGAUGCCUCCAAA", "s⁻¹", "=", "6.46e-05"),
    ("AUAAAAGCGCCAGAACUACAGAAAUGUAGUUGACGAGGAGGAGGUUUAUCGAAUAUUCGGCGGAUGCCGCCAAA", "s⁻¹", "=", "6.88e-05"),
    ("AUAAAAGCGCCAGAACUACAGAAAUGUAGUUGACGAGGAGGAGGUUUAUCGAAUUUUCUGCGGAUACCUCCAAA", "s⁻¹", "=", "2.67e-05"),
    ("AUAAAAGCGCCAGAACUACAGAAAUGUAGUUGACGAGGGGGAGGUUUGUCGAAUUUUCGGCGGAUGCCUCCAAA", "s⁻¹", "=", 0.000124),
    ("AUAAAAGCGCCAGAACUACAGAAAUGUAGUUUACGAGGAGGAGGAUUAUCGAAUUUUCGGCGGAUGCCUCCAAA", "s⁻¹", "=", 0.00202),
]
